- MEASUREMENT PROTOCOL: Solubility in pH4.0 and pH7.4 phosphate buffer solution
- Format: physicochemical
- CONDITION SET: phosphate buffer (PBS), aqueous buffer, kinetic from dmso stock; pH 4.0 phosphate buffer solution, 2 hr incubation, 25° C.; read-out: Solubility, pH 4.0 PBS
MEASUREMENT KIND: solubility at 2 h (µM)
# unit: µM | format: bare number

Below are worked cases with known answers.
{"MOLECULE": "CCNC1CC[C@@H](C)[C@](C)(/C=C/C(C)=C/Cc2c(O)c(C=O)c(C)c(Cl)c2OC)[C@H]1C (stereo partly shown)", "QUANTITATIVE READOUT": 186}
{"MOLECULE": "CC(/C=C/[C@@]1(C)[C@H](C)CC/C(=N\\OCC(=O)O)[C@@H]1C)=C\\Cc1c(O)c(/C=N/O)c(C)c(Cl)c1OCF", "QUANTITATIVE READOUT": 165}
{"MOLECULE": "CC(/C=C/[C@@]1(C)[C@H](C)CC/C(=N\\OCC(=O)O)[C@@H]1C)=C\\Cc1c(O)c(C=O)c(C)c(Cl)c1OCF", "QUANTITATIVE READOUT": 192}

Q) Quick check: solubility at 2 h of CO/N=C/c1c(C)c(Cl)c(OC)c(C/C=C(C)/C=C/[C@@]2(C)[C@H](C)CC/C(=N\OCCN3CCN(C)CC3)[C@@H]2C)c1O ?
A) 39
